Catalogue of pKd readings, one per entry.
subjectOfTest: HLA-A*01:01
protocol: IEDB peptide-MHC binding, purified MHC/direct/fluorescence; filed as Kd, often an IC50 or EC50 that approximates it; bounds were set here for any values at or beyond the usual limits of such assays
measurementSetup: source organism: Vibrio parahaemolyticus
pKd: −log10 of the molar value.

Worked examples, 2 sequences total:
# macromoleculeSequence, subjectOfTest, pKd
records = [
    ("ASEELMDKY", "HLA-A*01:01", 7.57),
    ("QYDDLHKKF", "HLA-A*01:01", "≤ 4.70"),
]

Consider the record given below.
get_value(item= VFMDNAFKK , readout=pKd) returns ≤ 4.70

====

subjectOfTest: HLA-A*68:23
protocol: IEDB peptide-MHC binding, purified MHC/competitive/fluorescence; filed as Kd, often an IC50 or EC50 that approximates it; bounds were set here for any values at or beyond the usual limits of such assays
measurementSetup: source organism: Escherichia coli F11
reportedMetric: pKd
Scale: pKd equals -log10([C]), with [C] in mol/L.

get_value(item= MTYSHHACR , readout=pKd) returns 9.70

====

subjectOfTest: HLA-A*01:01
protocol: IEDB peptide-MHC binding, purified MHC/direct/fluorescence; filed as Kd, often an IC50 or EC50 that approximates it; bounds were set here for any values at or beyond the usual limits of such assays
measurementSetup: source organism: Corynebacterium glutamicum
reportedMetric: Kd

get_value(item= VHDREGNEV , readout=Kd) returns ≥ 20 µM

====

subjectOfTest: HLA-B*07:02
protocol: IEDB peptide-MHC binding, purified MHC/direct/fluorescence; filed as Kd, often an IC50 or EC50 that approximates it; bounds were set here for any values at or beyond the usual limits of such assays
measurementSetup: source organism: Human immunodeficiency virus 1
reportedMetric: Kd (µM)
Answer in µM, number only, no unit symbol.

get_value(item= EPIVGAETF , readout=Kd) returns 5.64

====

subjectOfTest: HLA-A*11:01
protocol: IEDB peptide-MHC binding, purified MHC/competitive/fluorescence; filed as Kd, often an IC50 or EC50 that approximates it; bounds were set here for any values at or beyond the usual limits of such assays
measurementSetup: source organism: Bacillus anthracis str. A0488
reportedMetric: Kd
I'd appreciate it if you included the unit after the number.

get_value(item= KVQEWYLSY , readout=Kd) returns 42.2 nM

====

subjectOfTest: HLA-B*15:01
protocol: IEDB peptide-MHC binding, purified MHC/direct/fluorescence; filed as Kd, often an IC50 or EC50 that approximates it; bounds were set here for any values at or beyond the usual limits of such assays
measurementSetup: source organism: Rickettsia prowazekii
pKd: −log10 of the molar value.
reportedMetric: pKd

get_value(item= RRNRKALWL , readout=pKd) returns ≤ 4.70

====

subjectOfTest: HLA-A*24:02
protocol: IEDB peptide-MHC binding, purified MHC/competitive/fluorescence; bounds were set here for any values at or beyond the usual limits of such assays
measurementSetup: source organism: Zaire ebolavirus
reportedMetric: IC50

# macromoleculeSequence, reportedMetric, observedResult
records = [
    ("SVGHMMVIF", "IC50", "2.41 µM"),
    ("ELSFTVVSN", "IC50", "≥ 119 µM"),
    ("GRQTQSRPI", "IC50", "≥ 204 µM"),
    ("FTPQFLLQL", "IC50", "0.814 µM"),
    ("DKLSSTNQL", "IC50", "16.2 µM"),
    ("FYWPVMNHK", "IC50", "9.75 µM"),
    ("HILGPDCCI", "IC50", "≥ 135 µM"),
    ("LESRFTPQF", "IC50", "16.2 µM"),
]

get_value(item= TLDGQQFYW , readout=IC50) returns 0.182 µM

get_value(item= QAFEAGVDF , readout=IC50) returns 29.4 µM
